Read-out: Human Leukocyte Antigen - DR isotype (HLADR), HLA-DRA (gene 3122)
MEASUREMENT NOTES: BSK_CASM3C_HLADR: BioMAP Diversity Plus: CASM3C Assay for Human Leukocyte Antigen - DR isotype (HLADR) Biomarker Activity (AID 2283043);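 note: cell-surface HLA-DR protein level quantified by ELISA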
MEASUREMENT SETUP: primary human coronary artery smooth muscle cells; actives raise or lower the signal
Calls of active or inactive are those of the source. Rule for the calls: active = hit-call score of the fitted dose curve at least 0.9, where 1 is the maximum; inactive = score below 0.9.
Classes to choose from: active, inactive

Consider the following illustrative entries.
Cc1ccc(OP(=O)(Oc2ccc(C)cc2)Oc2ccc(C)cc2)cc1 (tested in a mixture with another compound): inactive
O=c1c2ccccc2c(=O)c2c1cc(Cl)c1[nH]c3c([nH]c12)c(Cl)cc1c(=O)c2ccccc2c(=O)c13: inactive
O=[N+]([O-])C=Cc1ccccc1: active
N#CCCCCC#N: inactive
O=P1(NCCCl)OCCCN1CCCl (stereo not given): inactive
CC(C)CCCCCCCOP(=O)(Oc1ccccc1)Oc1ccccc1: inactive
CC(C)CCCCCCCOC(=O)c1ccccc1C(=O)OCCCCCCCC(C)C: inactive
COC(C)(C)CCC[C@H](C)C/C=C/C(C)=C/C(=O)OC(C)C: active

I would be grateful if you could indicate the recorded call for CC(=O)/C=C/c1ccccc1 . inactive

Assay outcome for O=c1[nH]c(Cl)c(Cl)cc1Cl : what was it? inactive

Record lookup: outcome of this test for O=C1C(Cl)=C(Cl)C(=O)C(Cl)=C1Cl ? active

Returns: the outcome recorded for CCCCCCCCCCCC#N in this assay. inactive

----------
SYSTEM UNDER TEST: Cellular tumor antigen p53 (Homo sapiens) (UniProt P04637)
Sequence (P04637 whole entry, looked up): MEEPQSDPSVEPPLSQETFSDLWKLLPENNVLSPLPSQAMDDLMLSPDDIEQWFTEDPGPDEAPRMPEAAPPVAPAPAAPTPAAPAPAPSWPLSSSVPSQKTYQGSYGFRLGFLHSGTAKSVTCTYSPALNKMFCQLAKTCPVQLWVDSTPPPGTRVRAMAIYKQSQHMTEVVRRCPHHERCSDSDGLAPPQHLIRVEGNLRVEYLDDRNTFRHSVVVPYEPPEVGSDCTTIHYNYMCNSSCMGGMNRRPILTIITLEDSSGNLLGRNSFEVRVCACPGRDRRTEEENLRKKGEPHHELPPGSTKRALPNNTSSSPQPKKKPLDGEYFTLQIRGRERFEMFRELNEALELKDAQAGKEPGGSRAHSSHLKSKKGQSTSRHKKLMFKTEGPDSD
MEASUREMENT NOTES: TOX21_p53_BLA_p5_ratio: Tox21 HCT-116 p53 Agonism Beta-lactamase Assay, Ratio, Phase 5 (AID 2283599)
Records with an inconclusive call do not appear. The source made the active and inactive calls. Rule for the calls: active = hit-call score of the fitted dose curve at least 0.9, where 1 is the maximum; inconclusive = response in the unintended direction; inactive = score below 0.9.
Please state which outcome applies, choosing from Yes = active, No = inactive

CCOS(C)(=O)=O: No
Oc1ccc(C2(c3ccc(O)cc3)c3ccccc3-c3ccccc32)cc1: Yes
OC(O)C(Cl)(Cl)Cl: No
CCC(C)c1cc([N+](=O)[O-])cc([N+](=O)[O-])c1OC(=O)C=C(C)C (stereo not drawn): Yes
COC(C)(C)C: No

Tell me the recorded outcome of this test for c1ccc2c(c1)Sc1ccccc1N2C[C@@H]1CN2CCC1CC2 . No

Dear colleague, could you share the recorded outcome for c1ccc2cc3c(cc2c1)-c1cccc2cccc-3c12 when you have a moment? Yes

# lookup: test call for O=c1ccc2cc(O[C@@H]3O[C@H](CO)[C@@H](O)[C@H](O)[C@H]3O)c(O)cc2o1 Yes

----------
Read-out: Vascular cell adhesion molecule 1 (VCAM1), VCAM1 (gene 7412)
MEASUREMENT NOTES: BSK_MyoF_VCAM1: BioMAP Diversity Plus: MyoF Assay for Vascular cell adhesion molecule 1 (VCAM1) Biomarker Activity (AID 2284231)
MEASUREMENT SETUP: primary human lung fibroblasts
Calls of active or inactive are those of the source. The calls were made as follows: active = hit-call score of the fitted dose curve at least 0.9, where 1 is the maximum; inactive = score below 0.9.
// allowed return values: Yes (active), No (inactive)

Previously resolved entries follow.
Nc1ccc(-c2ccc(N)c(N)c2)cc1N: Yes
CCC(C)c1cc([N+](=O)[O-])cc([N+](=O)[O-])c1OC(=O)C=C(C)C (configuration not stated): Yes
COCC(=O)N(c1c(C)cccc1C)N1CCOC1=O: No
CCCCCCCCCCCC#N: Yes
C=CC(=O)OCC(CC)CCCC (configuration not stated): No

Assay result, entry O=[N+]([O-])C=Cc1ccccc1 — outcome? Yes

Check the results log: what was the call for CCCOC(=O)c1ccccc1C(=O)OCCC ? No

State the result this test recorded for O=S(=O)(c1ccccc1)c1ccccc1 . No

Query: recorded result category for Clc1ccc(-c2ccccc2)cc1 in this test No

Any idea what this test logged for CC(C)CCCCCCCOC(=O)c1ccccc1C(=O)OCCCCCCCC(C)C ? No

What outcome does the record of this test show for CNC(=O)Oc1cc(C)c(SC)c(C)c1 ? No
